Reference source for all entries: patent US20220380442A1

biological target: Sin Nombre virus (SNV) glycoproteins Gn and Gc displayed on the surface of Expi293F cells transfected with … (Sin Nombre virus); assay: flow
Each entry below carries its reported EC50.
Record the value in ng/mL, omitting the unit from your answer.

Exam item: Param item = SNV-57 (antibody, V domains shown) VH: QVQLVESGGGVVQPGRSLRLSCAASGFTFSSYAMHWVRQAPGKGLEWVALISLDGFNTYYPDSVKGRFTISRDSSKNTLFLQLNSLRIEDTAVYYCVKDRGPTGSGSYGMDVWGQGTTVTVSS VL: SYELTQPPSVSVSPGQTASITCSGDKLGNKFACWYQQKPGQSPVLVIHQDKKRPSGIPERFSGSNSGNTATLTISGTQAVDEADYYCQAWDSSNVVFGGGTKLTVL ; retrieve measured EC50.
Marked response: 6
